// provenance: ChEMBL document CHEMBL1201862

# System: LOX IMVI
# assay.comment: NCI tumour cell line growth inhibition, 48 h
Active and inactive are the calls of the source. Rule as the data show it: active = GI50 up to about 1.1 µM and inactive = higher.
Pick one: T = active, F = inactive

Please review the following examples before continuing.
>>> class_name("ClC1=C(Cl)C2OC3C=CCC3OC2C(Cl)=C1Cl (stereo unspecified)")
"F"
>>> class_name("O=C(N/N=C/c1ccco1)c1cc(I)cc(I)c1O")
"F"
>>> class_name("O=c1oc2ccc3ccccc3c2cc1-c1nc2ccccc2s1")
"F"
>>> class_name("O/N=C/c1ccc(O)c(O)c1")
"F"
>>> class_name("NC(=O)c1cc2ccccc2o/c1=N/c1ccccc1")
"F"
>>> class_name("Cc1cccc(CP(Cc2cccc(C)c2)CC2(Cp3c4ccccc4c4ccccc43)COC2)c1")
"F"
>>> class_name("CC1S/C(=N/c2nnc(-c3ccccc3)o2)NC1=O (stereo unspecified)")
"F"
>>> class_name("COC(=O)C(C(=O)C(=O)Nc1ccc([N+](=O)[O-])cc1)c1nc2cc(C)c(C)cc2nc1O (stereo unspecified)")
"F"

**Q:** Please share the test call associated with CS(=O)(=O)OCCCOS(C)(=O)=O .
**A:** F

**Q:** Please share the test call associated with CCOC(=O)n1c(=O)nc2c3c(ncn21)Oc1c(c(-c2ccccc2)nn1-c1ccccc1)C3c1ccc(Cl)cc1 (stereo unspecified) .
**A:** F

**Q:** Please share the test call associated with Clc1cc(N/N=C(\c2ccccc2)c2ccccn2)ncn1 .
**A:** T

**Q:** Please share the test call associated with O=C1OS2(OC(=O)c3cccc4cccc2c34)c2ccccc21 (stereo unspecified) .
**A:** F

**Q:** Please share the test call associated with CNC(=O)NS(=O)(=O)c1ccc(C)cc1.NS(=O)O .
**A:** F

**Q:** Please share the test call associated with C=C(C)[C@@H]1CC[C@]2(C(=O)O)CC[C@]3(C)[C@H](CC[C@@H]4[C@@]5(C)CC[C@H](O)C(C)(C)[C@@H]5CC[C@]43C)[C@@H]12 [BETULINIC ACID] .
**A:** F

**Q:** Please share the test call associated with COC(=O)c1ccc(NCc2cc(O)c3ccccc3c2O)cc1 .
**A:** F

**Q:** Please share the test call associated with COC(=O)c1cnn2c1n[n+]([O-])c1ccccc12 .
**A:** F

**Q:** Please share the test call associated with O=C(O)c1ccc(/C=N/N=C2c3ccccc3-c3ccccc32)cc1 .
**A:** F

###

# System: KM12
# assay.comment: NCI tumour cell line growth inhibition, 48 h
Active and inactive are the calls of the source. No stated cut-off is given here; in the data, active = GI50 up to about 1.1 µM and inactive = higher.
readout.name: GI50

These solved cases illustrate the format of a correct answer.
>>> experimental_value("COc1ccc(-c2cn3ccsc3n2)cc1")
"> 100 µM (inactive)"
>>> experimental_value("CCOC(=O)NC(=O)c1cn(CCCOC(=O)CCCCCCCCCCC(=O)OCCCn2cc(C(=O)NC(=O)OCC)c(=O)[nH]c2=O)c(=O)[nH]c1=O")
"> 100 µM (inactive)"
>>> experimental_value("OC1(c2ccc(-c3ccccc3)cc2)c2ccccc2C2=NCCN21 (stereo unspecified)")
"22.9 µM (inactive)"
>>> experimental_value("O=C1OS2(OC(=O)c3cccc4cccc2c34)c2ccccc21 (stereo unspecified)")
"> 100 µM (inactive)"
>>> experimental_value("O=C(CN1CCN(C(=O)OCc2ccccc2)CCN(CC(=O)N2CCCCC2)CCN(C(=O)OCc2ccccc2)CC1)N1CCCCC1")
"17.7 µM (inactive)"
>>> experimental_value("O=C(O)c1ccc(/C=N/N=C2c3ccccc3-c3ccccc32)cc1")
"35.2 µM (inactive)"
>>> experimental_value("N#C/C(=C1\\OC(=O)C(c2ccc(Br)cc2)=C1O)c1ccc(Br)cc1")
"14.9 µM (inactive)"
>>> experimental_value("Nc1ccc2c(c1)S(=O)(=O)c1cc(N)ccc1-2")
"> 100 µM (inactive)"
>>> experimental_value("COC(=O)c1cnn2c1n[n+]([O-])c1ccccc12")
"> 100 µM (inactive)"
>>> experimental_value("O=Cc1ccc2c(c1I)OCO2")
"> 100 µM (inactive)"

Now for the compound whose GI50 we want.
**Q:** Any idea what its GI50 is? The compound is O=C(O)[C@H](c1ccccc1)[C@@H](C(=O)O)c1ccccc1
**A:** > 100 µM (inactive)

###

# Test system: SK-MEL-2
# assay.comment: NCI tumour cell line growth inhibition, 48 h
Activity calls are given as the source filed them. Cut-off read from the data, not from the text of the source: active = GI50 up to about 1.1 µM and inactive = higher.
readout.name: GI50

**Q:** Any idea what its GI50 is? The compound is CCOC(=O)C(=O)Nc1nc2c(s1)C(=O)c1ccccc1C2=O
**A:** 17.2 µM (inactive)

**Q:** Any idea what its GI50 is? The compound is O=[N+]([O-])c1ccc(C2=Nc3ccccc3[S+]([O-])C(c3ccccc3)C2)cc1 (stereo not drawn)
**A:** 34.7 µM (inactive)

**Q:** Any idea what its GI50 is? The compound is NC(=O)c1cc2ccccc2o/c1=N/c1ccccc1
**A:** > 100 µM (inactive)

###

Items are presented alongside their recorded GI50.
# Tested on: 786-0
# assay.comment: NCI tumour cell line growth inhibition, 48 h
Activity calls are given as the source filed them. Cut-off read from the data, not from the text of the source: active = GI50 up to about 1.1 µM and inactive = higher.

>>> experimental_value("CN1CN(c2ccccc2)C2(CCN(CC(C)(c3ccc(F)cc3)C3OCCCO3)CC2)C1=O (centres undefined)")
"20.4 µM (inactive)"
>>> experimental_value("O=c1oc2ccc3ccccc3c2cc1-c1nc2ccccc2s1")
"> 100 µM (inactive)"
>>> experimental_value("NC(=O)NC(=O)CCC(NS(=O)(=O)c1ccccc1)C(=O)NC(N)=O (centres undefined)")
"> 100 µM (inactive)"
>>> experimental_value("O=c1[nH]c(=O)n(COC(CO)CO)cc1-c1ccccc1")
"> 100 µM (inactive)"

**Q:** Any idea what its GI50 is? The compound is COC(=O)C1=C(c2ccc3c(c2)OCO3)OC(c2cc(OC)c(OC)c(OC)c2)C1 (centres undefined)
**A:** 3.61 µM (inactive)

**Q:** Any idea what its GI50 is? The compound is N#Cc1c(N)c2c(c(-c3ccccc3)c1-c1ccccc1)C(=O)N(NC(=S)Nc1ccccc1)C2=O
**A:** > 100 µM (inactive)

**Q:** Any idea what its GI50 is? The compound is CC(=O)OC/C=C(\C)CCC(Br)C(C)(C)Br (centres undefined)
**A:** > 10 µM (inactive)

**Q:** Any idea what its GI50 is? The compound is C=CCN(C)CN(C)c1nc(N(C)C)nc(N(C)C)n1
**A:** 43.9 µM (inactive)

**Q:** Any idea what its GI50 is? The compound is N=C(N)NC(=N)Nc1ccc(S(=O)(=O)O)cc1
**A:** > 100 µM (inactive)

**Q:** Any idea what its GI50 is? The compound is O=C1C2=C(SCCS2)C(=O)c2c(Sc3ccc(Cl)cc3)c(Sc3ccc(Cl)cc3)c(Sc3ccc(Cl)cc3)c(Sc3ccc(Cl)cc3)c21
**A:** 78.5 µM (inactive)

**Q:** Any idea what its GI50 is? The compound is CCOC(=O)n1c(=O)nc2c3c(ncn21)Oc1c(c(-c2ccccc2)nn1-c1ccccc1)C3c1ccc(Cl)cc1 (centres undefined)
**A:** 1.52 µM (inactive)

**Q:** Any idea what its GI50 is? The compound is CCOC(=O)C(C)(C)/C=C\C(Cl)=C(Cl)Cl
**A:** > 100 µM (inactive)

**Q:** Any idea what its GI50 is? The compound is CC(=O)OCCc1cccnc1/C=N/O
**A:** > 100 µM (inactive)

**Q:** Any idea what its GI50 is? The compound is COc1ccc(C2=CC(c3ccc4c(c3)OCO4)c3c(c4ccccc4oc3=O)O2)cc1OC (centres undefined)
**A:** 1.13 µM (inactive)

###

# Tested on: PC-3
# assay.comment: NCI tumour cell line growth inhibition, 48 h
Active and inactive are the calls of the source. Rule as the data show it: active = GI50 up to about 1.1 µM and inactive = higher.
readout.name: GI50

**Q:** Any idea what its GI50 is? The compound is CN(C)c1ccc(/C=C2\C[C@H]3[C@@H]4CC=C5C[C@@H](O)CC[C@]5(C)[C@H]4CC[C@]3(C)[C@H]2O)cc1
**A:** 13.1 µM (inactive)

**Q:** Any idea what its GI50 is? The compound is Cn1nc2ccc(Nc3cc(=O)[nH]c4ccc5nn(C)nc5c34)cc2n1
**A:** > 100 µM (inactive)

**Q:** Any idea what its GI50 is? The compound is CCOC(=O)n1c(=O)nc2c3c(ncn21)Oc1c(c(-c2ccccc2)nn1-c1ccccc1)C3c1ccc(Cl)cc1 (stereo not drawn)
**A:** 1.73 µM (inactive)

###

Items are presented alongside their recorded GI50.
# System: SF-295
# assay.comment: NCI tumour cell line growth inhibition, 48 h
Calls of active or inactive are those of the source. Rule as the data show it: active = GI50 up to about 1.1 µM and inactive = higher.

These solved cases illustrate the format of a correct answer.
>>> experimental_value("Cc1nc2ccc(Cl)cc2c2c1CCS2")
"> 100 µM (inactive)"
>>> experimental_value("CCOC(=O)C(C)Sc1nnc(COc2ccc(Cl)cc2)n1-c1ccccc1 (stereo not drawn)")
"22 µM (inactive)"
>>> experimental_value("C=CSCCC(N)C(=O)O (stereo not drawn)")
"> 100 µM (inactive)"
>>> experimental_value("O=C(/C=C(\\O)C(=O)O)/C=C(\\O)c1ccccc1")
"> 4.65 µM (inactive)"
>>> experimental_value("CC1=NN(c2cccc(Cl)c2)C2(SCC(=O)N2c2nc3ccccc3s2)/C1=C\\c1cccs1 (stereo not drawn)")
"27.4 µM (inactive)"
>>> experimental_value("O=C(O)C1CCCN1Cc1cc2ccccc2c2ccccc12 (stereo not drawn)")
"> 100 µM (inactive)"
>>> experimental_value("COC(=O)C1=C(C(=O)OC)SC(=C2SC3=C(SC(=C4SCCS4)S3)S2)S1")
"> 100 µM (inactive)"
>>> experimental_value("COC(=O)c1ccc(NCc2cc(O)c3ccccc3c2O)cc1")
"7.5 µM (inactive)"
>>> experimental_value("O=S1(=O)OCCOS(=O)(=O)C1Cc1cccc2ccccc12")
"32.3 µM (inactive)"
>>> experimental_value("O=c1c2cc([N+](=O)[O-])ccc2oc2nc3n(c(=O)c12)CCCS3")
"> 100 µM (inactive)"

**Q:** Any idea what its GI50 is? The compound is Cc1nn(-c2ccccc2)c2nc3c(c(C)nn3-c3ccccc3)c(-c3ccc(C(F)(F)F)cc3)c12
**A:** > 100 µM (inactive)

**Q:** Any idea what its GI50 is? The compound is O=C(/C=C/c1ccccc1)CSc1nc[nH]n1
**A:** 81.1 µM (inactive)

**Q:** Any idea what its GI50 is? The compound is CO[C@@H]1C=C[C@@]23c4cc5c(cc4C(O)N(CC2O)C3C1)OCO5 (stereo partly drawn)
**A:** 5.41 µM (inactive)
